- assay-overview: xn = mol fraction of the nth substance listed
- experimental-conditions: 353.2 K; 100 kPa; Liquid; Taylor dispersion method; x1 = 0
metric-name: binary diffusion coefficient

O=C[C@@H](O)[C@H](O)[C@H](O)CO [D-(-)-arabinose] + O    2.37e-09 m2/s
OC[C@H]1O[C@@](CO)(O[C@H]2O[C@H](CO)[C@@H](O)[C@H](O)[C@H]2O)[C@@H](O)[C@@H]1O [D-sucrose] + O    1.69e-09 m2/s
O=C[C@@H](O)[C@@H](O)[C@H](O)[C@H](O)CO [D-mannose] + O    2.16e-09 m2/s
O=C[C@H](O)[C@@H](O)[C@H](O)[C@H](O)CO [D-glucose] + O    2.13e-09 m2/s

Query :: binary diffusion coefficient for O=C[C@H](O)[C@@H](O)[C@H](O)CO [D-xylose] + O ?
Result :: 2.33e-09 m2/s

Query :: Find the recorded binary diffusion coefficient belonging to O=C[C@H](O)[C@@H](O)[C@@H](O)[C@H](O)CO [(+)-galactose] + O and report it.
Result :: 2.17e-09 m2/s
